Kindly supply the reported pKa values for the records listed here.
Numbers only.

Below are worked cases with known answers.
COc1ccc2c(c1)C[NH+](C)CCS2 ... 7.5
COC(=O)/C=C/C(=O)[O-] ... 2.9
CCc1ncnc(NC(CC)c2ccc(Oc3ccc(F)cc3)cc2)c1Br (stereo unspecified) ... 4.3
C[C@H](C#Cc1ccc(Cc2ccc(F)cc2)s1)N(O)C(N)=O ... 10.4
O=C(Nc1cccc(Cl)c1)c1ccccc1O ... 7.2

Report pKa for each item below.
1. CCNC(=O)OC1CCN(c2nncc3cc(OC)c(OC)cc23)CC1
2. C=CC(=O)Nc1cccc(Nc2nc(Nc3ccc(OCCOC)cc3)ncc2F)c1
3. CC(c1cc2ccccc2s1)N(O)C(N)=O (stereo unspecified)
4. NC(=O)c1ccc(-c2cc(-c3ccccc3)cnc2N)cc1
5. Cc1cc(N)nc2ccccc12

// result
1. 5.4
2. 4.8
3. 10.2
4. 5.4
5. 7.9

Your task in this section: give pKa for each listed record.
1. Cc1cc(C)nc(N2CCC3(CCCN(Cc4ccccc4-c4nc(C)no4)C3=O)CC2)n1
2. O=c1[nH]c2cc(C(F)(F)F)ccc2n1Cc1cc(Cl)ccc1O
3. COc1ccc(C2=C([O-])c3ccccc3C2=O)cc1
4. Cc1nc(C(=O)[O-])ccc1N(C)Cc1cccc(Cl)c1
5. Cc1nc(C#Cc2ccnc(Cl)c2)c(C)n1-c1ccc(F)cc1

// result
1. 4.8
2. 9.75
3. 4.1
4. 4.45
5. 4.35

// query State the recorded pKa for this entry: COc1cccc(-c2nnc3n(Cc4ccccc4Cl)c(=O)c4ccccc4n23)c1O
// result 8.4

###

Would you please tag the item 1 when its pKa is 4 or above, and 0 when it is below?

CCOC(=O)N1CCC(C)(C[NH+]2CCC3(CC2)CN(S(C)(=O)=O)c2ncccc23)CC1 ... 1
O=C(Nc1ccccc1C(=O)[O-])c1ccc(-c2ccccc2)cc1 ... 0
CC(=O)n1cc(C2=C([O-])CC(C)(C)CC2=O)c2ccccc21 ... 1
CCc1cc(Br)ccc1S(=O)(=O)NCc1ccccc1 ... 1
c1ccc(-c2cnc3c(-c4ccnc5ccccc45)cnn3c2)cc1 ... 1

// query Check this compound for pKa at or above 4: c1ccc(Nc2nc(NC3CCCCC3)nc3ccccc23)cc1
// result 1

// query Is pKa for COc1ccc(/C=C/C(=O)N2CCN(c3ccccn3)CC2)cc1 at or above 4?
// result 1

// query Threshold query (pKa >= 4) on Fc1ccccc1C1=Cc2ccccc2C2=[NH+]CCN12
// result 1

// query Confirm if pKa reported for the compound CCN(CC)c1ncnc2c1cnn2C is 4 or above.
// result 1

// query For this compound, is measured pKa 4 or higher? Cc1ccc2nc(N)ccc2c1
// result 1

// query Answer whether pKa of Nc1n[nH]c2cc(Br)ccc12 is greater than or equal to 4.
// result 0

// query Is pKa for O=C1CCCC2(CCN(c3cnc4ccccc4n3)CC2)N1Cc1c[nH]c2ccccc12 at or above 4?
// result 0

// query Reported pKa at or above 4? COc1ccc(-c2cnc3c(-c4cccc5ncccc45)cnn3c2)cc1
// result 1

// query Dear colleague, could you confirm whether COc1ccc(Br)c(C=O)c1O has pKa at or above 4?
// result 1

// query Answer whether pKa of O=C(Nc1cccc(Cl)c1)c1ccc(Cl)cc1O is greater than or equal to 4.
// result 1

// query Record CN1C(=O)Cn2cc(C(=O)NCc3ccc(Cl)cc3)c(=O)c3cc(C[NH+]4CCOCC4)cc1c32 ; criterion: pKa no lower than 4. Met?
// result 1

// query Hi team, for O=C(NO)C1c2ccccc2Oc2ccccc21 , is the recorded pKa at or above 4?
// result 1

// query Tell me whether pKa is at least 4 here: Nc1cccc2c1C(=O)N(C1CCC(=O)NC1=O)C2=O (stereo not given)
// result 1

// query Can COc1ccc(CNC(=O)c2c(C)nc3ccccn23)cc1 be said to have pKa at or above 4?
// result 1

// query Has Cc1ccc(OC(C)(C)C(=O)N[C@@H](C)[C@@H](Cc2ccc(OCCF)cc2)c2cccc(C#N)c2)nc1 a recorded pKa greater than or equal to 4?
// result 0

// query I'd appreciate it if you could say whether O=C([O-])COc1ccc2c(c1)Cc1ccccc1-2 has pKa at least equal to 4.
// result 0

// query Test whether the compound O=C(Nc1ccc(F)c(Cl)c1)C1CCN(c2ncccn2)CC1 records pKa of 4 or higher.
// result 0

// query Assess whether reported pKa for O=C1N(Cc2cccc3[nH]ccc23)CCCC12CCN(c1cnc3ccccc3n1)CC2 sits at 4 or higher.
// result 0

// query Can Cc1cc(C)nc(N2CCC3(CCCC(=O)N3Cc3cccc4[nH]ccc34)CC2)n1 be said to have pKa at or above 4?
// result 1

###

Where pKa equals or exceeds 5, the correct label is y; where it does not, the label is n.

Illustrative cases are given below, each with its answer.
Cc1ccc(C)n1-c1ccc(C(=O)[O-])c(O)c1 ... n
O=c1[nH]c2ccc(-c3ccc(F)cc3)cc2cc1[O-] ... y
O=Cc1cc(Br)cc(Br)c1O ... y

Alright, here's another compound for you.
// query Is pKa at least 5? Consider COC(=O)c1ccc2[nH]cc(CN3CCCC4(CCN(c5nc(C)cc(C)n5)CC4)C3=O)c2c1
// result n

###

readout label: pKa
Give bare numbers.

Dear colleague, could you please provide pKa for the molecules listed below?
1. Cc1ccc(C)c(CN2C(=O)CCCC23CCN(c2cnc4ccccc4n2)CC3)c1
2. CC(C)Oc1ccc(Cc2ccc(NC3=[NH+]CCN3)cc2)cc1
3. CC(NC(=O)c1ccccc1/N=C/c1c(O)ccc2ccccc12)c1ccccc1 (stereo unspecified)
4. Cc1nc2ccccn2c1C(=O)NCc1ccc(Cl)cc1
5. C[NH+](C)CCSc1nc2ccccc2cc1-c1ccccc1
6. COc1cc(Nc2ccccc2C(=O)[O-])cc(OC)c1
7. O=C([O-])c1ccc(NCc2cccc(Oc3ccccc3)c2)cn1

// result
1: 3.4; 2: 10.5; 3: 6.9; 4: 5.1; 5: 8.4; 6: 4; 7: 4.45

Field: pKa. Fill in for each record below.
1. CS(=O)(=O)c1ccc(-c2cnc(N)c(-c3ccc(C(F)(F)F)nc3)c2)cc1
2. CC(C)Nc1nc(Nc2ccc(C(N)=O)cc2)c2sccc2n1

// result
4.8
6.3

Hi team, please reply with pKa for each item in this list.
1. O=C(Nc1nnc(-c2cccs2)o1)c1cccc(C(F)(F)F)c1
2. COc1ccc2[nH]cc(CN3CCCC4(CCN(c5nc(C)cc(C)n5)CC4)C3=O)c2c1

// result
[5.7, 4.65]

###

pKa of 5 or higher: rule met. Under 5: rule not met.

For orientation, consider the following solved cases.
COc1ccc(NS(=O)(=O)c2ccc(-n3cccn3)cc2)cc1OC ... rule met
Ic1cccc(-c2nn[n-]n2)c1 ... rule not met
Nc1nc(-c2ccccc2)cc2ccccc12 ... rule met
C1=C(c2ccc3ccccc3c2)N2CC[NH+]=C2c2ccccc21 ... rule met
CCc1ccccc1N(CC)C(=O)C1CCN(c2ncnc3c2nc2n3CCCCC2)CC1 ... rule not met
N#Cc1c(-c2ccc(Cl)cc2)nc(SCC(=O)Nc2ccc(Cl)cc2)[nH]c1=O ... rule not met

// query API: above_or_equal(metric=pKa, cutoff=5) for item O=C(Nc1ccccc1C(=O)[O-])c1cccc(Oc2ccccc2)c1
// result rule not met

// query Given Cc1csc2ccc3[nH]c4c(c3c12)C[NH+](C)CC4 , state whether its pKa is at least 5.
// result rule met

// query Check this molecule for pKa at or above 5: Nc1ncnc2ccc(-c3ccnc(F)c3)nc12
// result rule not met

// query pKa >= 5 for O=c1[nH]c2cc(-c3ccc(F)cc3)ccc2cc1[O-] ?
// result rule met

// query Threshold query (pKa >= 5) on COCc1nc2ccccc2n1Cc1ccc(C(C)(C)C)cc1
// result rule not met

// query Given the entry c1ccc(-c2nc3n(c2-c2ccccc2)CCS3)cc1 , answer whether its pKa meets or surpasses 5.
// result rule not met

// query Please tell me: is the molecule O=C1CN(c2ccccc2)C(=O)N1 at or over 5 in terms of pKa?
// result rule met

// query Has N#Cc1c(-c2ccccc2)nc(SCc2ccccc2)[nH]c1=O a recorded pKa greater than or equal to 5?
// result rule not met

// query Assess whether reported pKa for Cc1cc(C)nc(N2CCC3(CCCN(Cc4nn(C)nc4-c4ccccc4)C3=O)CC2)n1 sits at 5 or higher.
// result rule not met

// query Item O=C1N(Cc2c[nH]c3ccccc23)CCCC12CCN(c1cnc3ccccc3n1)CC2 with pKa of 5 or above?
// result rule not met

// query Quick check: does O=C(Nc1ccc(Cl)cc1)NS(=O)(=O)c1ccc(Cl)cc1 have pKa greater than or equal to 5?
// result rule not met

// query Textbook exercise: given the entry c1ccc(N2CC[NH2+]CC2)cc1 , state whether its pKa is greater than or equal to 5.
// result rule met

// query Is it the case that COc1cccc(-c2cnc(N)c(-c3ccc(C(N)=O)cc3)c2)c1 has pKa reaching or exceeding 5?
// result rule met

// query I'd appreciate it if you could say whether COc1cccc2[nH]cc(-c3ccnc(N)n3)c12 has pKa at least equal to 5.
// result rule met

// query Given the entry N#Cc1cccc(Nc2ccccc2C(=O)[O-])c1 , answer whether its pKa meets or surpasses 5.
// result rule not met
